# target of assay: Factor IXa (Homo sapiens (Human))
# Set-up: unit not given beside the values
No end group written: not given here.
assay readout: IC50, Factor IXa-1 stage clotting assay

Take a look at these entries with their results.
binder: KVSRYVNWIKEKTKL-NH2 [synthetic peptide IX400-414]
IC50, Factor IXa-1 stage clotting assay: 50
//
binder: LVLQYLRVPLVDRAT-NH2 [synthetic peptide IX321-335]
IC50, Factor IXa-1 stage clotting assay: 30
//
binder: YGIYTKVSRYVNWIK-NH2 [synthetic peptide IX395-409]
IC50, Factor IXa-1 stage clotting assay: 25

[1] HKGRSALVLQYLRVPL-NH2 [synthetic peptide IX315-330]
[2] VTAFLKWIDRSMKTR-NH2 [synthetic peptide X415-429]
[3] ARKGKYGIYTKVTAF-NH2 [synthetic peptide X404-418]
Q: hey, can you rank those binders up there by IC50, Factor IXa-1 stage clotting assay? biggest number first please Form entry: ranked labels (order as requested).
Result: 3, 1, 2
(3: 50, 1: 30, 2: 0)
